Entry source: the supplement of paper PMC9732359

Quick reference for protein stability index among some sequences
ASSAY_SUMMARY: protein stability index of a GFP-peptide fusion (yeast GPS) (PSI 1-4); higher = more stable; sorted into four equal gates, so the index is relative within each strain
EXPERIMENTAL_SETUP: pdr5∆

- RESIDUES: "PFSFSSATSTTEQTKSK [YLR335W/NUP2]"
  protein stability index: 2.99
- RESIDUES: "FGELQFAFLNAMFFGNY [AAR2]"
  protein stability index: 2.61
- RESIDUES: "QERQRQIQKNGPEITPE [PRP8]"
  protein stability index: 3.2
- RESIDUES: "TSTGIIRCHREDCDLVI [POP5]"
  protein stability index: 2.96
- RESIDUES: "NETIIDNFSPHQNVIIG [SMC3]"
  protein stability index: 2.56
- RESIDUES: "NYVAVGDVSNLPYLDEL [QCR2]"
  protein stability index: 3.19
- RESIDUES: "LVDLVSHFSPDIKAAVD [ITC1]"
  protein stability index: 1.99
- RESIDUES: "NTIIRDGSKMLKRADYT [RPN14]"
  protein stability index: 2.36
- RESIDUES: "HFRAPSRILYKAIRGMV [RPL16B]"
  protein stability index: 2.67
- RESIDUES: "DLLKLVHLSNGYKMIPG [FAS1]"
  protein stability index: 2.46
- RESIDUES: "EDFEHNNLSSMNLDFDI [MCD1]"
  protein stability index: 3.24
- RESIDUES: "MLGEDEGNTVLEKGNNP [SWP82]"
  protein stability index: 3.22
- RESIDUES: "SKALYPDYYMIIKYPVA [SNF2]"
  protein stability index: 2.31
- RESIDUES: "WREIIEKVRDYENSISK [IRR1]"
  protein stability index: 2.59
- RESIDUES: "SETDLNDIPLGSGQPDN [SRB8]"
  protein stability index: 3.12
- RESIDUES: "FQYGSRLPTFLKHKSIC [RPP1]"
  protein stability index: 1.91
- RESIDUES: "FVRGDSKIFRFQNSKSA [RPL24A]"
  protein stability index: 2.63
- RESIDUES: "EALVQAFAFCIPVYCFS [YCG1]"
  protein stability index: 1.83
- RESIDUES: "RRRTYRAHGRINKYESS [RPL17A]"
  protein stability index: 2.37
- RESIDUES: "NIVKQNEGIDLDTYRER [SMC2]"
  protein stability index: 3.51
- RESIDUES: "EGDIQVLKSYGAAPYAA [RPT1]"
  protein stability index: 2.83
- RESIDUES: "SASKHEYSDNFPVSLSQ [SIR4]"
  protein stability index: 2.71
- RESIDUES: "YKVEHPFFARFKLRIQT [RPB11]"
  protein stability index: 1.28
- RESIDUES: "TAIGIATKEGVVLGVEK [PUP2]"
  protein stability index: 3.31
- RESIDUES: "SIATKRFDAQTGSDREV [RPT3]"
  protein stability index: 3.17
- RESIDUES: "IYNELSYELIKEECQIE [CSN9]"
  protein stability index: 2.66
- RESIDUES: "PITGASLDLIKERRSLK [RPL24A]"
  protein stability index: 3.07
- RESIDUES: "SLSDNDLAVCATIIGII [ECM29]"
  protein stability index: 2.83
- RESIDUES: "DFVRNELNDIDTKIDQV [SMC3]"
  protein stability index: 3.31
- RESIDUES: "KSMITSEGEQKSAEGNN [YAR002W/NUP60]"
  protein stability index: 3.19
- RESIDUES: "NGTMINEVIDKLKNENT [PCI8]"
  protein stability index: 2.91
- RESIDUES: "SVVKKEDNKYAIAGNST [RGR1]"
  protein stability index: 2.63
- RESIDUES: "ATTGGLFGSKPQGSTTN [YGR119C/NUP57]"
  protein stability index: 3.37
- RESIDUES: "IAPRPLDLLRPVVRAPT [RPL13A]"
  protein stability index: 3.15
- RESIDUES: "LSAPLSKELRAQYGIKA [RPL26A]"
  protein stability index: 2.31
- RESIDUES: "QILPESQWNDSSIDKIE [SIR3]"
  protein stability index: 3.42
- RESIDUES: "PIDDTMTLLTDSLRKLY [MTW1]"
  protein stability index: 2.52
- RESIDUES: "GGAKSRGVRPYKHIDAS [RPS19A]"
  protein stability index: 3.38
- RESIDUES: "YMEQGNNKIITLVKGPK [SKI6]"
  protein stability index: 3.11
- RESIDUES: "DDQCMLITTYSKLSKNI [SIN4]"
  protein stability index: 2.42
- RESIDUES: "NDFFDNGDNLYGNDEEV [RPN4]"
  protein stability index: 1.62
- RESIDUES: "IPDLSIQNDIYLNDLMI [RPN12]"
  protein stability index: 3.06
- RESIDUES: "LQSNSKLASTLEKISSS [SMC4]"
  protein stability index: 2.52
- RESIDUES: "GGLSGEESIKIYPLIKP [UBP6]"
  protein stability index: 2.68
- RESIDUES: "LGVTYSSPTLATGFGAH [PRE4]"
  protein stability index: 2.29
- RESIDUES: "QFKTTIKDTANDNDITV [UBP6]"
  protein stability index: 2.09
- RESIDUES: "MNVQDRRRLLGPAAAKP [MTR3]"
  protein stability index: 3.1
- RESIDUES: "KYPIFTGESWVKLTYNS [YDL088C/ASM4]"
  protein stability index: 2.07
- RESIDUES: "PQKNVKIQVVDRHIGCV [PRE10]"
  protein stability index: 2.72
